- test target: Mitogen-activated protein kinase 1 (Homo sapiens)
- procedure summary: Inhibition of ERK2 (unknown origin) at 100 uM preincubated for 1 hr followed by substrate addition and measured after 1 hr by Z-lyte assay relative to control
- experimental setup: time 2.0 hrs
The compounds listed here are annotated with their inhibition.
Field: numeric (%). Do not append units.

{"compound": "O=C(CCl)Nc1cc(C(F)(F)F)cc(C(F)(F)F)c1", "inhibition, %": 7}
{"compound": "C=CC(=O)Nc1cc(C(F)(F)F)cc(C(F)(F)F)c1", "inhibition, %": 7}

Output reported inhibition of the compound CC(Br)C(=O)Nc1cc(C(F)(F)F)cc(C(F)(F)F)c1 (stereo not drawn) on Mitogen-activated protein kinase 1 (Homo sapiens).
7
